- Assay text: pH of 2.5 wt % aqueous solutions of the salts in purified water
- Assay type: physicochemical
- Conditions used: 2.5 wt % aqueous solution in purified water
Measurement label: pH of 2.5% salt solution
Enter the number alone.

q: Given NCC(=O)O [Glycine, glycine] , state its recorded pH of 2.5% salt solution.
a: 6.12

q: State the recorded pH of 2.5% salt solution for this entry: [Cl-].[Na+] [NaCl, sodium chloride]
a: 5.69

q: Entry O=C([O-])[O-].[Na+].[Na+] [Na2CO3(anhydrous), anhydrous sodium carbonate] has what pH of 2.5% salt solution?
a: 11.31

q: Request the reported pH of 2.5% salt solution associated with [Cl-].[K+] [KCl, potassium chloride]
a: 6.05

q: // query pH of 2.5% salt solution value for entry [Ca+2].[Cl-].[Cl-] [CaCl2(anhydrous), anhydrous calcium chloride]
a: 8.40

q: If you can, please state the reported pH of 2.5% salt solution value of Cl.N [NH4Cl, ammonium chloride] .
a: 4.97

q: I would be grateful if you could share the reported pH of 2.5% salt solution for O=C([O-])O.[Na+] [NaHCO3(anhydrous), anhydrous sodium bicarbonate] .
a: 8.09

q: Find the recorded pH of 2.5% salt solution belonging to O=P([O-])([O-])O.[Na+].[Na+] [Na2HPO4(anhydrous), anhydrous disodium hydrogen phosphate] and report it.
a: 8.90
